The compounds listed here are annotated with their half-life at 1 µM.
protocol: In vitro liver microsomal stability assay, human
Assay type: in vitro ADME
measurement.context: Human liver microsomes
measurement.label: half-life at 1 µM (min)

>>> reported_measurement("C[C@@]1(O)CC[C@H]2[C@H](CC[C@@H]3[C@@H]2CC[C@]2(C)[C@@H](C(=O)Cn4cnn(-c5ccnc(F)c5)c4=O)CC[C@@H]32)C1")
53.3
>>> reported_measurement("C[C@@]1(O)CC[C@H]2[C@H](CC[C@@H]3[C@@H]2CC[C@]2(C)[C@@H](C(=O)Cn4cnn(-c5cncc(F)c5)c4=O)CC[C@@H]32)C1")
60.3
>>> reported_measurement("Cc1cc(-n2ncn(CC(=O)[C@H]3CC[C@H]4[C@@H]5CC[C@@H]6C[C@](C)(O)CC[C@@H]6[C@H]5CC[C@]34C)c2=O)ccn1")
23
>>> reported_measurement("C[C@@]1(O)CC[C@H]2[C@H](CC[C@@H]3[C@@H]2CC[C@]2(C)[C@@H](C(=O)Cn4cnn(-c5cccc(N)c5)c4=O)CC[C@@H]32)C1")
7.8
